biological target: Neuronal acetylcholine receptor; alpha3/beta4 (Homo sapiens, UniProt P30926+P32297); experiment: Agonist activity at human alpha-3-beta-4 nAChR expressed in Xenopus oocytes by two-electrode voltage clamp technique; type: functional, cell-based, Oocyte; details: read-out: EC50
Sequence (P30926 whole entry): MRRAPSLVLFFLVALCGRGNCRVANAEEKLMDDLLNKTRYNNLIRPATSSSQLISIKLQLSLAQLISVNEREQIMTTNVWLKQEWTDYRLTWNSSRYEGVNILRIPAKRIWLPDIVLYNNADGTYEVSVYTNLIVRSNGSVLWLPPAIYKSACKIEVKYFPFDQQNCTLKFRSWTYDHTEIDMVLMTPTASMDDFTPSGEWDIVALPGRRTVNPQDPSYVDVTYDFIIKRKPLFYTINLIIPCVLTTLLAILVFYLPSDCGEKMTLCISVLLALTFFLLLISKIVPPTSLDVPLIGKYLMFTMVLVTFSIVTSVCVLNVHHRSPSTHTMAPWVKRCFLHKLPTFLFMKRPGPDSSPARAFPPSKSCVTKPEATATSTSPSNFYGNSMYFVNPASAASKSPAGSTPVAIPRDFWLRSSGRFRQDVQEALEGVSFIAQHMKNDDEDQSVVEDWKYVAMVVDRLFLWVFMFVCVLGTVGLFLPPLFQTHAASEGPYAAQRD
Sequence (P32297 whole entry): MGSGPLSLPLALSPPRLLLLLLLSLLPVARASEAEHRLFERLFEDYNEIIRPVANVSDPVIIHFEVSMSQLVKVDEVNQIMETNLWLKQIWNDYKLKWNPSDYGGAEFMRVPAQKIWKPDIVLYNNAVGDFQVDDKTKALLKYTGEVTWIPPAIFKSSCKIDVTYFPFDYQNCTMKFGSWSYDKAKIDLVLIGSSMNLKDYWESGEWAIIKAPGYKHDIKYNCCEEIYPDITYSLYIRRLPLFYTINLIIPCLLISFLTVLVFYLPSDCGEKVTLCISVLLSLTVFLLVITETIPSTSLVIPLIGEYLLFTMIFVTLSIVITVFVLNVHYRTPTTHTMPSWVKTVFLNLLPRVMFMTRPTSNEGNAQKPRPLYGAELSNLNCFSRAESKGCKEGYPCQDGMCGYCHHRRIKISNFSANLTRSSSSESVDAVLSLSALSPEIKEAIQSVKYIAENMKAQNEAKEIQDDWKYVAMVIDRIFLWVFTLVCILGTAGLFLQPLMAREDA
EXPERIMENTAL_READOUT: EC50

COMPOUND | EXPERIMENTAL_READOUT | OBSERVED_VALUE
CC(CCOC(=O)N1CCC1)N(C)C (configuration not stated) | EC50 | > 320 µM

Moving on to the next compound.
(Q) Consider the compound CC1CN(C(=O)OCCC(C)N(C)C)C1 (configuration not stated) and give its measured EC50.
(A) > 320 µM
